The compounds listed here are annotated with their Herbicidal action (damage score) AGSTE.
Test system: Monocotyledonous and dicotyledonous test plants
test_description: Herbicidal action, application pre-emergence
Type: in vivo
Set-up: key: 10=total damage to plant; 0=no damage to plant
condition_set: Agrostis tenius, spray solution 1000 mg/l, scale 0-10
Provide a numeric answer; units are not to be included.

The following compounds have reported results that may help.
Requested read-out: Herbicidal action (damage score) AGSTE. Entry: Cc1nn(C)nc1C(F)(F)[S+]([O-])C1=NOC(C)(C)C1 (stereo not drawn) [Compound No. 1.08]
10

Endpoint output: Herbicidal action (damage score) AGSTE of CCn1ncc(C(F)(F)S(=O)(=O)C2=NOC(C)(C)C2)n1 [1.38] . Value?
10

// query Herbicidal action (damage score) AGSTE value for entry Cc1nn(C(F)F)nc1C(F)(F)[S+]([O-])C1=NOC(C)(C)C1 (racemic) [1.22]
10

Fill blank: measured Herbicidal action (damage score) AGSTE of the compound CCc1nn(C)nc1C(F)(F)S(=O)(=O)C1=NOC(C)(C)C1 [1.26] is ____.
10

Herbicidal action (damage score) AGSTE lookup needed for Cc1nn(C(C)C)nc1C(F)(F)S(=O)(=O)C1=NOC(C)(C)C1 [1.41] , thanks.
10

Field: next compound
Entry under review: Cn1nc(C(F)S(=O)(=O)C2=NOC(C)(C)C2)c(C(F)(F)F)n1 (racemic) [Compound No. 1.11] . Reported Herbicidal action (damage score) AGSTE?
10

###

System: Monocotyledonous and dicotyledonous test plants
test_description: Herbicidal action, application pre-emergence
Type: in vivo
Parameters: key: 10=total damage to plant; 0=no damage to plant
condition_set: Digitaria sanguinalis, spray solution 1000 mg/l, scale 0-10
assay_metric: Herbicidal action (damage score) DIGSA
Please respond with just the number, no unit label.

Sample records with Herbicidal action (damage score) DIGSA:
Which measured Herbicidal action (damage score) DIGSA value corresponds to Cc1nn(C(F)F)nc1C(F)[S+]([O-])C1=NOC(C)(C)C1 (racemic) ?
10

// lookup Herbicidal action (damage score) DIGSA for CCn1nc(C(F)(F)F)c(C(F)(F)[S+]([O-])C2=NOC(C)(C)C2)n1 (racemic)
10

Could you share which Herbicidal action (damage score) DIGSA value was measured for CCc1nn(CC)nc1C(F)S(=O)(=O)C1=NOC(C)(C)C1 (racemic) ?
9

Record request: Herbicidal action (damage score) DIGSA value, item COCCn1nc(C(F)(F)F)c(C(F)(F)[S+]([O-])C2=NOC(C)(C)C2)n1 (racemic)
10

Request the reported Herbicidal action (damage score) DIGSA associated with CCn1ncc(C(F)[S+]([O-])C2=NOC(C)(C)C2)n1 (mixture of isomers)
9

Next item in the queue.
I am curious: what Herbicidal action (damage score) DIGSA value has been reported for CC1(C)CC(S(=O)(=O)C(F)(F)c2nn(CC3CCC3)nc2C(F)(F)F)=NO1 ?
10

###

Herbicidal action (damage score) AGSTE values, listed per item
Tested on: Monocotyledonous and dicotyledonous test plants
test_description: Herbicidal action, application pre-emergence
Assay type: in vivo
Parameters: key: 10=total damage to plant; 0=no damage to plant
condition_set: Agrostis tenius, spray solution 1000 mg/l, scale 0-10
Enter the number alone.

Herbicidal action (damage score) AGSTE lookup needed for CC1(C)CC([S+]([O-])C(F)(F)c2nn(C3CCCC3)nc2C(F)(F)F)=NO1 (racemic) [1.31] , thanks.
10

New cases:
Need Herbicidal action (damage score) AGSTE of CC1(C)CC([S+]([O-])C(F)c2nn(C3CCCC3)nc2C(F)(F)F)=NO1 (mixture of isomers) [1.30] , thanks.
10

Which Herbicidal action (damage score) AGSTE is listed for CC1(C)CC([S+]([O-])C(F)c2cn(C(C)(C)C)nn2)=NO1 (mixture of isomers) [Compound No. 2.03] ?
8

Entry Cc1nn(C)nc1C(F)S(=O)(=O)C1=NOC(C)(C)C1 (stereo not shown) [Compound No. 1.04] : reported Herbicidal action (damage score) AGSTE = ?
10

###

Tested on: Monocotyledonous and dicotyledonous test plants
test_description: Herbicidal action, application pre-emergence
Assay type: in vivo
Design: key: 10=total damage to plant; 0=no damage to plant
condition_set: Digitaria sanguinalis, spray solution 1000 mg/l, scale 0-10
assay_metric: Herbicidal action (damage score) DIGSA
In your answer, state the number alone without any accompanying words.

Which Herbicidal action (damage score) DIGSA is listed for COc1nn(C)nc1C(F)(F)S(=O)(=O)C1=NOC(C)(C)C1 [1.43] ?
10

// returns reported Herbicidal action (damage score) DIGSA for input CC(C)n1nc(C(F)(F)F)c(C(F)(F)S(=O)(=O)C2=NOC(C)(C)C2)n1 [1.17]
9

Data request, read-out Herbicidal action (damage score) DIGSA, for Cn1nnc(C(F)(F)F)c1C(F)(F)S(=O)(=O)C1=NOC(C)(C)C1 [3.02]
10

Continuing:
Quick one: Herbicidal action (damage score) DIGSA of CC1(C)CC(S(=O)(=O)C(F)(F)c2nn(C3CCCC3)nc2C(F)(F)F)=NO1 [1.29] ?
9

Any idea what its Herbicidal action (damage score) DIGSA is? The compound is C=CCn1nc(C(F)(F)F)c(C(F)(F)S(=O)(=O)C2=NOC(C)(C)C2)n1 [1.32]
10

Find the recorded Herbicidal action (damage score) DIGSA belonging to Cn1nc(Br)c(C(F)(F)S(=O)(=O)C2=NOC(C)(C)C2)n1 [1.46] and report it.
10

What value of Herbicidal action (damage score) DIGSA has been recorded for this entry: Cc1nn(C)nc1C(F)S(=O)(=O)C1=NOC(C)(C)C1 (stereo not drawn) [Compound No. 1.04]
10

Please look up its Herbicidal action (damage score) DIGSA: Cn1nc(CF)c(C(F)(F)S(=O)(=O)C2=NOC(C)(C)C2)n1 [Compound No. 1.01]
10

I am curious: what Herbicidal action (damage score) DIGSA value has been reported for COc1nn(C)nc1C(F)(F)[S+]([O-])C1=NOC(C)(C)C1 (stereo not drawn) [1.44] ?
10

Please give the measured Herbicidal action (damage score) DIGSA for this compound: Cn1nc(C(F)S(=O)(=O)C2=NOC(C)(C)C2)c(C(F)(F)F)n1 (racemic) [Compound No. 1.11]
10

Report Herbicidal action (damage score) DIGSA for CCc1nn(C)nc1C(F)(F)[S+]([O-])C1=NOC(C)(C)C1 (racemic) [1.27] please.
10

Look up Herbicidal action (damage score) DIGSA for this compound: Cc1nn(C(C)C)nc1C(F)(F)S(=O)(=O)C1=NOC(C)(C)C1 [1.41]
10

For Cn1nc(Br)c(C(F)S(=O)(=O)C2=NOC(C)(C)C2)n1 (stereo not drawn) [1.45] , what is its reported Herbicidal action (damage score) DIGSA?
10

Would you mind telling me what Herbicidal action (damage score) DIGSA value was observed for COCCn1nc(C(F)[S+]([O-])C2=NOC(C)(C)C2)c(C(F)(F)F)n1 (mixture of isomers) [1.24] ?
10

Entry under review: Cc1nn(C)nc1C(F)(Cl)S(=O)(=O)C1=NOC(C)(C)C1 (racemic) [Compound No. 1.07] . Reported Herbicidal action (damage score) DIGSA?
10

What value of Herbicidal action (damage score) DIGSA has been reported for the following compound? CC(C)n1nc(C(F)(F)F)c(C(F)(F)[S+]([O-])C2=NOC(C)(C)C2)n1 (racemic) [1.18]
10

State the recorded Herbicidal action (damage score) DIGSA for this entry: CC1(C)CC([S+]([O-])C(F)(F)c2cn(C(C)(C)C)nn2)=NO1 (stereo not drawn) [2.04]
2

// query Herbicidal action (damage score) DIGSA value for entry CC1(C)CC(S(=O)(=O)C(F)(F)c2cn(C(C)(C)C)nn2)=NO1 [2.02]
9

###

Test system: Monocotyledonous and dicotyledonous test plants
test_description: Herbicidal action, application pre-emergence
Type: in vivo
condition_set: Digitaria sanguinalis, spray solution 1000 mg/l, scale 0-10
assay_metric: Herbicidal action (damage score) DIGSA
Form field (numeric): enter value without unit.

Solved cases (3 shown):
Reported Herbicidal action (damage score) DIGSA for CC1(C)CC([S+]([O-])C(F)(F)c2nn(C3CCCC3)nc2C(F)(F)F)=NO1 (racemic) : what is it?
9

Endpoint output: Herbicidal action (damage score) DIGSA of Cn1nnc(Br)c1C(F)(F)[S+]([O-])C1=NOC(C)(C)C1 (centres unmarked) . Value?
9

Which Herbicidal action (damage score) DIGSA value belongs to CCn1ncc(C(F)S(=O)(=O)C2=NOC(C)(C)C2)n1 (centres unmarked) ?
9

More entries:
Herbicidal action (damage score) DIGSA lookup needed for CC1(C)CC([S+]([O-])C(F)(F)c2nn(CC3CCC3)nc2C(F)(F)F)=NO1 (centres unmarked) , thanks.
10

Herbicidal action (damage score) DIGSA for Cn1nc(C(F)(F)F)c(C(F)(F)S(=O)(=O)C2=NOC(C)(C)C2)n1 ?
10

The measurements presented in this section are drawn from patent US20100004128A1.
